The measured values listed here are drawn from patent US20180291110A1.

Recorded koff, one value per entry.
- TARGET_UNDER_TEST: T1, human transferrin receptor (recombinant, for surface plasmon resonance) (human, UniProt P02786 89-760)
- T1 construct: also called huTfR; human transferrin receptor-biotinylated
- TEST_SUMMARY: SPR 25C
Return type: number; implicit unit s⁻¹.

Recorded koff, per entry:
[[record]]
binder = "2/99 VH18/VL2 (antibody, V domains shown) VH: QVQLQESGPGLVKPSQTLSLTCTVSGFSLSSYAMSWIRQHPGKGLEWIGYIWSGGSTDYAPSLKSRVTISVDTSKNQFSLKLSSVTAADTAVYYCARRYGTSYPDYGDANGFDPWGQGTLVTVSS VL: DIQMTQSPSSLSASVGDRVTITCRASQSISSYLNWYQQKPGKAPKLLIYRASTLASGVPSRFSGSGSGTDFTLTISSLQPEDFATYYCQQSYSSSNVDNTFGGGTKVEIK"
number = 0.00489

[[record]]
binder = "2/99 VH21/VL2 (antibody, V domains shown) VH: QSMQESGPGLVKPSQTLSLTCTVSGFSLSSYAMSWIRQHPGKGLEWIGYIWSGGSTDYASWAKSRVTISVDTSKNQVSLKLSSVTAADTAVYYCARRYGTSYPDYGDANGFDPWGQGTLVTVSS VL: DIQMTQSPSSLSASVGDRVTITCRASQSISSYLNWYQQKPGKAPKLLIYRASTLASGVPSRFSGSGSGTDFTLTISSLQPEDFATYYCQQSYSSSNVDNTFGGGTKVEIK"
number = 0.00138


Param item = 2/99 VH20/VL8 (antibody, V domains shown) VH: QSMQESGPGLVKPSQTLSLTCTVSGFSLSSYAMSWIRQHPGKGLEWIGYIWSGGSTDYAPSLKSRVTISVDTSKNQVSLKLSSVTAADTAVYYCARRYGTSYPDYGDANGFDPWGQGTLVTVSS VL: AYQLTQSPSSLSASVGDRVTITCRASQSISSYLSWYQQKPGKAPKLLIYRASTLASGVPSRFSGSGSGTDFTLTISSLQPEDFATYYCQQSYSSSNVDNTFGGGTKVEIK ; retrieve measured koff.
0.00658

Param item = 2/99 VH7/VL3 (antibody, V domains shown) VH: QQLVETGGGLIQPGGSLRLSCAASGFSLSSYAMSWVRQAPGKGLEWIGYIWSGGSTDYASWAKGRFTISRDNSKNTLYLQMNSLRAEDTAVYYCARRYGTSYPDYGDANGFDPWGQGTLVTVSS VL: AYQMTQSPSSLSASVGDRVTITCRASQSISSYLNWYQQKPGKAPKLLIYRASTLASGVPSRFSGSGSGTDFTLTISSLQPEDFATYYCQQSYSSSNVDNTFGGGTKVEIK ; retrieve measured koff.
0.00145

Param item = 2/99 VH18/VL15 (antibody, V domains shown) VH: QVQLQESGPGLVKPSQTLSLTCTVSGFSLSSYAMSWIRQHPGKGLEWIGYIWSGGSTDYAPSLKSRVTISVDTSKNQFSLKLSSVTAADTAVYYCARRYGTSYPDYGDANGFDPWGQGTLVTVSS VL: DIVMTQSPDSLAVSLGERATINCKSSQSISSYLIWYQQKPGQPPKLLIYRASTLASGVPDRFSGSGSGTDFTLTISSLQAEDVAVYYCQQAYSSSNVDNTFGGGTKVEIK ; retrieve measured koff.
0.00758
